Provide the recorded pIC50 for the entries that follow.
ASSAY TEXT: Cytotoxicity against human L02 cells assessed as inhibition of cell growth by MTT assay
Assay type: toxicity, cell-based
Entry type: numeric. Quantity: pIC50, the -log10 of concentration in molar units.

Task item: Entry "CCc1c2c(nc3ccc(OC(=O)N4CCC(N5CCCCC5)CC4)cc13)-c1cc3c(c(=O)n1C2)COC(=O)[C@]3(O)CC" : reported pIC50 = ?
Reply: 4.65

Task item: Entry "CCc1c2c(nc3ccc(OC(=O)NCCOCc4cn(CCO[C@H]5O[C@@H](CO)[C@H](O)[C@@H](O)[C@@H]5O)nn4)cc13)-c1cc3c(c(=O)n1C2)COC(=O)[C@]3(O)CC" : reported pIC50 = ?
Reply: 5.81
